Value source: ChEMBL document CHEMBL4007388

- Tested on: HT-29
- experiment-summary: Growth inhibition of human HT-29 cells incubated for 48 hrs by sulforhodamine B assay
- Type: functional
- experimental-parameters: HT-29, 48 h
Returns: string. Value is t if measured GI50 is below 400 nM, and f if it is greater than or equal to it.

{"columns": ["substance-smiles", "assigned-label"],
 "data": [
  ["N=C(N)c1ccc(-c2ccc(-c3ccccc3)s2)cc1F", "f"],
  ["N=C(N)c1ccc(-c2ccc(-c3ccc(Cl)cc3)s2)cc1", "t"],
  ["COc1ccc(-c2ccc(-c3ccc(C(=N)N)c(F)c3)s2)cc1", "f"],
  ["N=C(N)c1ccc(-c2ccc(-c3cc(Cl)cc(Cl)c3)s2)cc1", "t"],
  ["N=C(N)c1ccc(-c2ccc(-c3ccc(F)cc3)s2)cc1", "t"],
  ["COc1ccc(-c2ccc(-c3ccc(C(=N)N)cc3)s2)cc1", "t"]
]}

====

Measured GI50 by item
- System: SW-620
- experiment-summary: Growth inhibition of human SW620 cells incubated for 48 hrs by sulforhodamine B assay
- Format: functional
- experimental-parameters: SW-620, 48 h

{"columns": ["substance-smiles", "GI50"],
 "data": [
  ["COc1ccc(-c2ccc(-c3ccc(C(=N)N)c(F)c3)s2)cc1", "1920 nM"],
  ["N=C(N)c1ccc(-c2ccc(-c3cc(Cl)cc(Cl)c3)s2)cc1", "318 nM"],
  ["COc1ccc(-c2ccc(-c3ccc(C(=N)N)cc3)s2)cc1", "211 nM"],
  ["COc1cc(OC)cc(-c2ccc(-c3ccc(C(=N)N)cc3)s2)c1", "1950 nM"],
  ["N=C(N)c1ccc(-c2ccc(-c3ccc(Cl)cc3)s2)cc1F", "186 nM"],
  ["N=C(N)c1ccc(-c2ccc(-c3ccc(F)cc3)s2)cc1", "386 nM"]
]}

====

- Tested on: UO-31
- experiment-summary: Growth inhibition of human UO31 cells incubated for 48 hrs by sulforhodamine B assay
- Format: functional
- experimental-parameters: UO-31, 48 h
Returns: string. Value is label 1 if measured GI50 is below 2 µM, and label 0 if it is greater than or equal to it.

{"columns": ["substance-smiles", "assigned-label"],
 "data": [
  ["COc1cc(OC)cc(-c2ccc(-c3ccc(C(=N)N)cc3)s2)c1", "label 1"],
  ["N=C(N)c1ccc(-c2ccc(-c3ccc(F)cc3)s2)cc1", "label 1"],
  ["N=C(N)c1ccc(-c2ccc(-c3ccccc3)s2)cc1F", "label 0"],
  ["COc1cc(OC)cc(-c2ccc(-c3ccc(C(=N)N)c(F)c3)s2)c1", "label 1"],
  ["N=C(N)c1ccc(-c2ccc(-c3ccc(Cl)cc3)s2)cc1", "label 1"],
  ["COc1ccc(-c2ccc(-c3ccc(C(=N)N)c(F)c3)s2)cc1", "label 0"],
  ["N=C(N)c1ccc(-c2ccc(-c3ccc(Cl)cc3)s2)cc1F", "label 1"],
  ["COc1ccc(-c2ccc(-c3ccc(C(=N)N)cc3)s2)cc1", "label 1"]
]}

====

- Species on record: Homo sapiens
- experiment-summary: Inhibition of PTK in human MCF7 cells at 1 uM preincubated for 2 hrs followed by poly-Glu-Tyr substrate addition by ELISA relative to control
- Assay type: cell-based
Measured inhibition by item

{"columns": ["substance-smiles", "quantity-unit", "inhibition"],
 "data": [
  ["N=C(N)c1ccc(-c2ccc(-c3ccc(Cl)cc3)s2)cc1F", "%", 88],
  ["N=C(N)c1ccc(-c2ccc(-c3ccc(Cl)cc3)s2)cc1", "%", 98],
  ["COc1ccc(-c2ccc(-c3ccc(C(=N)N)c(F)c3)s2)cc1", "%", 66],
  ["COc1cc(OC)cc(-c2ccc(-c3ccc(C(=N)N)c(F)c3)s2)c1", "%", 74]
]}

====

- System: NCI-H226
- experiment-summary: Growth inhibition of human NCI-H226 cells incubated for 48 hrs by sulforhodamine B assay
- Format: functional
- experimental-parameters: NCI-H226, 48 h
Measured log10 GI50 by item
parameter-measured: log10 GI50 (log10 of the value in nM)

{"columns": ["substance-smiles", "log10 GI50"],
 "data": [
  ["N=C(N)c1ccc(-c2ccc(-c3cc(Cl)cc(Cl)c3)s2)cc1", 3.32],
  ["N=C(N)c1ccc(-c2ccc(-c3ccc(F)cc3)s2)cc1", 3.34],
  ["COc1cc(OC)cc(-c2ccc(-c3ccc(C(=N)N)cc3)s2)c1", 3.35],
  ["COc1ccc(-c2ccc(-c3ccc(C(=N)N)c(F)c3)s2)cc1", 4.16],
  ["N=C(N)c1ccc(-c2ccc(-c3ccc(Cl)cc3)s2)cc1", 2.65],
  ["COc1ccc(-c2ccc(-c3ccc(C(=N)N)cc3)s2)cc1", 3.33]
]}

====

- Test system: BT-549
- experiment-summary: Growth inhibition of human BT549 cells incubated for 48 hrs by sulforhodamine B assay
- Assay type: functional
- experimental-parameters: BT-549, 48 h
Returns: string. Value is Fulfilled if measured GI50 is below 2000 nM, and Not fulfilled if it is greater than or equal to it.

{"columns": ["substance-smiles", "assayed-target", "assigned-label"],
 "data": [
  ["COc1cc(OC)cc(-c2ccc(-c3ccc(C(=N)N)c(F)c3)s2)c1", "BT-549", "Fulfilled"],
  ["COc1cc(OC)cc(-c2ccc(-c3ccc(C(=N)N)cc3)s2)c1", "BT-549", "Fulfilled"],
  ["N=C(N)c1ccc(-c2ccc(-c3ccc(Cl)cc3)s2)cc1F", "BT-549", "Fulfilled"],
  ["COc1ccc(-c2ccc(-c3ccc(C(=N)N)c(F)c3)s2)cc1", "BT-549", "Not fulfilled"],
  ["N=C(N)c1ccc(-c2ccc(-c3ccccc3)s2)cc1F", "BT-549", "Not fulfilled"],
  ["N=C(N)c1ccc(-c2ccc(-c3ccc(Cl)cc3)s2)cc1", "BT-549", "Fulfilled"],
  ["COc1ccc(-c2ccc(-c3ccc(C(=N)N)cc3)s2)cc1", "BT-549", "Fulfilled"],
  ["N=C(N)c1ccc(-c2ccc(-c3ccc(F)cc3)s2)cc1", "BT-549", "Fulfilled"]
]}

====

- experiment-summary: Growth inhibition of human NCI60 cells at 10 uM after 48 hrs by SRB assay relative to control; values are per cent of control
- experimental-parameters: NCI60, 48 h

{"columns": ["compound", "quantity-unit", "growth percent at 10 µM"],
 "data": [
  ["N=C(N)c1ccc(-c2ccc(-c3ccc(F)cc3)s2)cc1", "%", -78.7],
  ["N=C(N)c1ccc(-c2ccc(-c3ccccc3)s2)cc1F", "%", -79.2],
  ["N=C(N)c1ccc(-c2ccc(-c3cccs3)s2)cc1F", "%", -72.5],
  ["N=C(N)c1ccc(-c2ccc(-c3cccs3)s2)cc1 [4-(2,2'-BITHIOPHENE-5-YL)BENZAMIDINE]", "%", 83.9],
  ["COc1cc(OC)cc(-c2ccc(-c3ccc(C(=N)N)cc3)s2)c1", "%", -74.1],
  ["N=C(N)c1ccc(-c2ccc(-c3ccc(Cl)cc3)s2)cc1", "%", -70.5],
  ["N=C(N)c1ccc(-c2ccc(-c3cc(Cl)cc(Cl)c3)s2)cc1", "%", -70.3],
  ["COc1ccc(-c2ccc(-c3ccc(C(=N)N)c(F)c3)s2)cc1", "%", -80.5],
  ["COc1cc(OC)cc(-c2ccc(-c3ccc(C(=N)N)c(F)c3)s2)c1", "%", -77.8],
  ["N=C(N)c1ccc(-c2ccc(-c3ccc(Cl)cc3)s2)cc1F", "%", -67.3],
  ["COc1ccc(-c2ccc(-c3ccc(C(=N)N)cc3)s2)cc1", "%", -70.7]
]}

====

- Test system: RXF 393
- experiment-summary: Growth inhibition of human RXF393 cells incubated for 48 hrs by sulforhodamine B assay
- Assay type: functional
- experimental-parameters: RXF 393, 48 h
Measured GI50 by item
parameter-measured: GI50

{"columns": ["substance-smiles", "assayed-target", "parameter-measured", "endpoint-result"],
 "data": [
  ["N=C(N)c1ccc(-c2ccc(-c3ccc(Cl)cc3)s2)cc1", "RXF 393", "GI50", "157 nM"],
  ["COc1ccc(-c2ccc(-c3ccc(C(=N)N)c(F)c3)s2)cc1", "RXF 393", "GI50", "4680 nM"],
  ["COc1cc(OC)cc(-c2ccc(-c3ccc(C(=N)N)cc3)s2)c1", "RXF 393", "GI50", "1810 nM"],
  ["N=C(N)c1ccc(-c2ccc(-c3ccc(Cl)cc3)s2)cc1F", "RXF 393", "GI50", "187 nM"],
  ["N=C(N)c1ccc(-c2ccc(-c3ccc(F)cc3)s2)cc1", "RXF 393", "GI50", "1480 nM"],
  ["COc1cc(OC)cc(-c2ccc(-c3ccc(C(=N)N)c(F)c3)s2)c1", "RXF 393", "GI50", "449 nM"],
  ["COc1ccc(-c2ccc(-c3ccc(C(=N)N)cc3)s2)cc1", "RXF 393", "GI50", "1000 nM"],
  ["N=C(N)c1ccc(-c2ccc(-c3ccccc3)s2)cc1F", "RXF 393", "GI50", "7010 nM"]
]}
